Test system: Sam68 (KHDRBS1)
assay_name: Sam68 small-molecule binders, primary screen, biochemical, small-molecule microarray, 635 nm fluorescence (AID 1125);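 also: score merges 667 nm channel intensity with signal to noise over triplicate slides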
stated_conditions: small-molecule microarray binding, higher = more signal
composite z-score values for the compounds below.
quantity_kind: composite z-score

compound="CCN(CC)c1ccc(N2CC=CC34O[C@@H]5C=CCOC(=O)[C@@H]5[C@H]3C(=O)N(C(C)CO)[C@@H]4C2=O)cc1 (stereo partly specified)" quantity_kind="composite z-score" experimental_value=-1.69
compound=C=CC[C@@]1(C(=O)NCc2ccccc2)N=C(c2ccc(OCCCO)cc2)O[C@@H]1c1ccccc1 quantity_kind="composite z-score" experimental_value=0.966
compound="C=CCC(OC(C)=O)[C@@H]1[C@@H](N(Cc2ccc(-c3ccccc3)cc2)C(=O)c2ccc(-c3ccccc3)cc2)c2cc(OCCCO)ccc2N1C(=O)c1ccc(-c2ccccc2)cc1 (stereo partly specified)" quantity_kind="composite z-score" experimental_value=-0.821
compound=C=C(C(=O)CC[C@H](OC(C)=O)c1ccc(CO)o1)C(C)C quantity_kind="composite z-score" experimental_value=0.596
compound=NCCCCCNC(=O)[C@H]1C[C@H]2C(=O)NCC(=O)N2[C@H]1c1ccc(O)cc1 quantity_kind="composite z-score" experimental_value=1.29
compound="CC(=O)OC(C/C=C\\B1OC(C)(C)C(C)(C)O1)c1ccccc1 (stereo unspecified)" quantity_kind="composite z-score" experimental_value=0.0684
compound=C[N+](C)(C)CCCC[C@@H]1NC(=O)[C@H]2C[C@@H](C(=O)NCCCCCN)[C@@H](c3cccc(OCCO)c3)N2C1=O quantity_kind="composite z-score" experimental_value=0.965
compound=C=CCNC(=O)[C@@H]1[C@H]2C(=O)O[C@H](c3ccccc3)[C@H](c3ccccc3)N2[C@H](c2ccc(O)cc2)[C@@]12C(=O)Nc1ccc(C#Cc3ccc(OC)cc3)cc12 quantity_kind="composite z-score" experimental_value=1.32
compound=COCCCNC(=O)[C@@]1(CCS(=O)(=O)c2ccccc2)N=C(c2ccc(OCCCO)cc2)O[C@H]1c1ccccc1CN=[N+]=[N-] quantity_kind="composite z-score" experimental_value=1.22
compound=COc1c(C)cc(-c2cc3c(c(CCc4ccccc4)n2)[Si](C(C)C)(C(C)C)OC3)cc1C quantity_kind="composite z-score" experimental_value=1.07
compound=C[N+](C)(C)CCCCNC(=O)[C@@H]1C[C@@H]2C(=O)NCC(=O)N2[C@@H]1c1cccc(OCCO)c1 quantity_kind="composite z-score" experimental_value=0.781
compound=CN(C)CCCC[C@@H]1NC(=O)[C@@H]2C[C@H](C(=O)NCCCCCNC(=O)CS)[C@H](c3cccc(OCCO)c3)N2C1=O quantity_kind="composite z-score" experimental_value=0.528
compound=CC(C)(C)OC(=O)CC[C@@]1(C(=O)NCc2ccccc2)N=C(c2ccc(OCCCO)cc2)O[C@@H]1c1ccccc1CN=[N+]=[N-] quantity_kind="composite z-score" experimental_value=1.15
compound=O=C(NO)[C@]1(Cc2ccccc2)N=C(c2ccc(OCCCO)cc2)O[C@@H]1c1ccccc1 quantity_kind="composite z-score" experimental_value=-0.32
compound=CCCCCCC#C[Si](O[C@H](c1ccccc1)c1cn(Cc2ccccc2)nn1)(C(C)C)C(C)C quantity_kind="composite z-score" experimental_value=0.458
compound=O=C(N1CCCCC1)[C@@]1(Cc2ccccc2)N=C(c2ccc(OCCCO)cc2)O[C@H]1c1ccccc1 quantity_kind="composite z-score" experimental_value=1.23

Numbers sourced from PubChem BioAssay.
